Sourced from PubChem BioAssay (NCI)

Test: NCI Yeast Anticancer Drug Screen. Data for the rad50 strain (AID 155);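 note: 0% = growth of vehicle-only cultures of the same strain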
Conditions: S. cerevisiae rad50 strain growth inhibition; at 33.0 µM
Protocol: Growth inhibition of yeast strains with defined genetic alterations is measured as a screen for potential anti-cancer activity. Selected strains with alterations in DNA damage repair or cell cycle control were exposed to compounds and growth inhibition was measured relative to vehicle treated controls. The strain used in this assay is rad50
About 79,000 compounds went through this panel and 15% of them were active in at least one assay; those are over-represented in the sample as a whole. The source made the active and inactive calls. Cut-off read from the data, not from the text of the source: active = growth inhibition above about 70%; inactive = the rest. Residues, ends and D or L forms follow the SMILES beside them. *: point of attachment. Fmoc = O=C(OCC1c2ccccc2-c2ccccc21)*; Boc = CC(C)(C)OC(=O)*
Your response should consist of one outcome taken from yes (1) for active, no (0) for inactive

A selection of reference data follows.
Molecule | Classification
O=C(/N=N/C(=O)Oc1ccccc1)Oc1ccccc1 | no (0)
CC(C)(C)OC(=O)NCCCCC(NC(=O)C(Cc1c[nH]c2ccccc12)NC(=O)OCC1c2ccccc2-c2ccccc21)C(=O)O (stereo not given) (Fmoc-Trp-Lys(Boc)-OH; configuration not given here) | no (0)
NC(N)=NC(N)=Nc1ccccc1 (tested in a mixture with another compound) | no (0)
CCCCN(CCC#N)c1ccc(/C=C/c2ccnc3ccccc23)cc1 | no (0)
COc1ccc(C(OCC2OC(n3cnc4c(=O)n(Cc5ccccc5[N+](=O)[O-])nnc43)C(O)C2O)(c2ccccc2)c2ccc(OC)cc2)cc1 (stereo not given) | no (0)

Now take the following molecule into account.
Query: Hi, do you know how Cc1ccc(S(=O)(=O)N/N=C/C(Br)=C(/Br)C(=O)O)cc1 came out in this test?
Result: yes (1)

---

Assay: NCI Yeast Anticancer Drug Screen. Data for the mlh1 strain (AID 171);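 note: 0% = growth of vehicle-treated control cultures of the same strain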
Settings: S. cerevisiae mlh1 strain growth inhibition; at 11.0 µM; hits give high values
About 79,000 compounds went through this panel and 15% of them were active in at least one assay; those are over-represented in the sample as a whole.
Reported values of growth inhibition for individual entries
Output spec: scalar in %, unitless text.

Answered examples (5):
Compound | growth inhibition (%)
CCOc1ccc2nc3ccccc3c(N)c2c1 | 47
Cc1ccccc1NC(=O)c1c(C)oc2c1C(=O)c1ccccc1C2=O | -12
O=C(O)C(=Cc1ccc(-c2ccccc2)cc1)C(=O)O | 23
COc1ccccc1/C=C\C(=O)C1COCN1 (stereo unspecified) | 12
CSc1nc(-c2ccccc2)nc(=[N+]2CCOCC2)s1 | 35

The record that follows has no growth inhibition shown yet.
Query: Give the value of growth inhibition reported for the following: O=C1c2ccccc2C(=O)c2c(O)c(NCCNCCO)cc(O)c21
Result: 44

---

Experiment: NCI Yeast Anticancer Drug Screen. Data for the rad50 strain (AID 155);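 note: 0% = growth of vehicle-only cultures of the same strain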
Settings: S. cerevisiae rad50 strain growth inhibition; at 3.7 µM
About 79,000 compounds went through this panel and 15% of them were active in at least one assay; those are over-represented in the sample as a whole. Activity calls are given as the source filed them. Cut-off read from the data, not from the text of the source: active = growth inhibition above about 70%; inactive = the rest.
Your response should consist of one outcome taken from TRUE for active, FALSE for inactive

Compound | Classification
CC(C)C(c1ccccc1)c1ccccc1 | FALSE
Cc1cc(OCc2nc(N)nc(N)c2-c2ccc(Cl)c(Cl)c2)ccc1[N+](=O)[O-] | FALSE

Query: Hi, do you know how CC1=NN(C(=O)c2ccccc2O)C(=O)/C1=C/c1ccco1 came out in this test?
Result: FALSE

Query: Hi, do you know how CN(C)CC1=Nc2cccc3cccc(c23)N1 came out in this test?
Result: FALSE

Query: Hi, do you know how Cc1ccc(NC(=O)CCC(=O)C(C)C(=O)c2ccccc2)c(C)c1 (stereo not given) came out in this test?
Result: FALSE

Query: Hi, do you know how CC1(c2ccccc2)O[C@@H]2C[C@H]3[C@@H]4CCC5=CC(=O)C=C[C@]5(C)[C@@]4(F)[C@@H](O)C[C@]3(C)[C@]2(C(=O)CO)O1 (stereo not given in full) came out in this test?
Result: FALSE

Query: Hi, do you know how CN(C)/C(=N/C(=S)Nc1ccccc1)SCc1ccccc1 came out in this test?
Result: FALSE

Query: Hi, do you know how CCCCCCCN1C(=O)c2ccccc2C1=O came out in this test?
Result: FALSE

Query: Hi, do you know how CC(C)(N=Nc1ccc(Cl)cc1)[N+](=O)[O-] came out in this test?
Result: FALSE
